test: Encapsulation rate of the LNP encapsulating nucleic acid (Quant-iT RiboGreen RNA Assay Kit); assay type: physicochemical; conditions: LNP encapsulating siRNA 2 (Table 12)
assay.endpoint: Encapsulation rate (%)
Unit % implied. Number only.

The following molecules have reported results that may help.
molecule: CCCCCCCCCC(CCCCCCCCC(=O)OCC(CCCC)CCCCCC)OC(=O)C1CCN(C)CC1 (stereo not drawn) [YS-119, reference compound]
assay.endpoint: Encapsulation rate (%)
measured.value: 90.2
//
molecule: CCCCCCC(CCCCCC)COC(=O)CCCCCCCC(CCCCCCCC(=O)OCC(CCCCCC)CCCCCC)OC(=O)CSC1CCN(C)CC1 [Compound I-45]
assay.endpoint: Encapsulation rate (%)
measured.value: 96.1

In the following, a different molecule is considered.
Reported Encapsulation rate (%) ( CCCCCCC(CCCCCC)OC(=O)CCCCCCCC(CCCCCCCC(=O)OC(CCCCCC)CCCCCC)OC(=O)COC1CCN(C)CC1 [Compound I-12] ) = 95.1
